- target system: T1, EsCas13d, nuclease-dead (Eubacterium siraeum, UniProt B0MS50, R295A;H300A;R849A;H854A)
- T1 sequence: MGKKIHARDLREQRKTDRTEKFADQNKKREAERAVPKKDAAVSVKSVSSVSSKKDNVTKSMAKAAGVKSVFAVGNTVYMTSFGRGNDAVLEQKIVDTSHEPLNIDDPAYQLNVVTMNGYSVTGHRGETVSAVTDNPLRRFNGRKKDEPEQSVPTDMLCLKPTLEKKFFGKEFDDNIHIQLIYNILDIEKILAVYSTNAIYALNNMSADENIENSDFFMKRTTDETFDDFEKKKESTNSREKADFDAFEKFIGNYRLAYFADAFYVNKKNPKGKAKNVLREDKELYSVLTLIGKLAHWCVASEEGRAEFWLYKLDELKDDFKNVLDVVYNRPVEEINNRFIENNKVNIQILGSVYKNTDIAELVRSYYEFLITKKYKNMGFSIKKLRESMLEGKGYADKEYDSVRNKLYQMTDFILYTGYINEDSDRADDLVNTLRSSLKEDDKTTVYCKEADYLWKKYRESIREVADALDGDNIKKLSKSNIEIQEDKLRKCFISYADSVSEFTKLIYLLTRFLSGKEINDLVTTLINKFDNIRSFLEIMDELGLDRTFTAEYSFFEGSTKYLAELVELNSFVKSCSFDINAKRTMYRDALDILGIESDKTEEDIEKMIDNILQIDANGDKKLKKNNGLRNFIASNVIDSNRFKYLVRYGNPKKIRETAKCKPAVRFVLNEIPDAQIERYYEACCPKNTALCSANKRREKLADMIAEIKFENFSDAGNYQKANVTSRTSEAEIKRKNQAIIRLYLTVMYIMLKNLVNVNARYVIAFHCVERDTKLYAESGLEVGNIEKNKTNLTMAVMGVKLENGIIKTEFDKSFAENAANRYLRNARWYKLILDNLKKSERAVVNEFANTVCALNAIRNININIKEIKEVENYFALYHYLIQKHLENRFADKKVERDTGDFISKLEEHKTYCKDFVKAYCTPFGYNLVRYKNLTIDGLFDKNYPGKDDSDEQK
- test summary: crRNA (strand 1, pre-loaded); Mg2+; 40 mM Tris-HCl pH 7.5, 150 mM NaCl, 6 mM MgCl2, 1 mM DTT, 0.1% Tween-20, 0.2 mg/ml BSA; 25 C; 10 min per concentration, then washed
- conditions used: tags: His6-TwinStrep-SUMO cleaved; N-terminal SNAP kept (SNAP-Surface 488); label: 3' end held by stalled T7 RNA polymerase
Listing of recorded pKd by entry.
Scale note: pKd = -log10(concentration in M).

Below, 3 binders whose answers are already recorded.
target 1 insU 3' of 15,insG 3' of 7 (mixed) RNA 1: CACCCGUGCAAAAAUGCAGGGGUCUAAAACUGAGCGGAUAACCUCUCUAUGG RNA 2: GGGAAUGGAUCCACAUCUACGAAUUCGUACCAUAGAGUAGGUUAUCGCGCUCACCGAGAUCGGAAGAGCACACGU :: 7.97
target 1 insG 3' of 10,insC 3' of 9 (mixed) RNA 1: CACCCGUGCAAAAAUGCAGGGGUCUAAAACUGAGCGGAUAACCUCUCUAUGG RNA 2: GGGAAUGGAUCCACAUCUACGAAUUCGUACCAUAGAGAGGUUGACUCCGCUCACCGAGAUCGGAAGAGCACACGU :: 7.83
target 1 insU 3' of 13,insA 3' of 7 (mixed) RNA 1: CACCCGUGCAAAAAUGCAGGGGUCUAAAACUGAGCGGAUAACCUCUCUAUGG RNA 2: GGGAAUGGAUCCACAUCUACGAAUUCGUACCAUAGAGAGUGUUAUCACGCUCACCGAGAUCGGAAGAGCACACGU :: 7.87

Which measured pKd value corresponds to target 2 MT 5'PFS GGU 3'PFS AUG (mixed) RNA 1: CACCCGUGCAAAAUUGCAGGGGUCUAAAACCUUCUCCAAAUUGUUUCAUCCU RNA 2: GGGAAUGGAUCCACAUCUACGAAUUCGGUAGGAUGAAACAAUUUGGAGAAGAUGAGAUCGGAAGAGCACACGU ?
7.79
